The values you see were collected from PubChem BioAssay (EPA / NIEHS).

Molecular target: human Retinoid X Receptor beta (RXRb), RXRB (gene 6257)
Assay: ATG_RXRb_TRANS: Attagene TRANS-FACTORIAL HepG2 Assay for human Retinoid X Receptor beta (RXRb) (AID 2283013)
Inconclusive results are not listed. The source made the active and inactive calls. How the source made its calls: active means hit-call score of the fitted dose curve at least 0.9, where 1 is the maximum; inconclusive means response in the unintended direction; inactive means score below 0.9.
Possible outcomes: active, inactive

cpd.smiles: COc1ccc(O)c(C(C)(C)C)c1
measurement.target: human Retinoid X Receptor beta (RXRb), RXRB (gene 6257)
classification: active
//
cpd.smiles: ClC1=C(Cl)[C@]2(Cl)[C@@H]3[C@@H]4C[C@@H]([C@H]5O[C@@H]45)[C@@H]3[C@@]1(Cl)C2(Cl)Cl
measurement.target: human Retinoid X Receptor beta (RXRb), RXRB (gene 6257)
classification: active
//
cpd.smiles: CC#Cc1cc(C)nc(Nc2ccccc2)n1
measurement.target: human Retinoid X Receptor beta (RXRb), RXRB (gene 6257)
classification: active
//
cpd.smiles: NS(=O)(=O)C(F)(F)C(F)(F)C(F)(F)C(F)(F)C(F)(F)C(F)(F)C(F)(F)C(F)(F)F
measurement.target: human Retinoid X Receptor beta (RXRb), RXRB (gene 6257)
classification: inactive
//
cpd.smiles: c1cc2ccc3cccc4ccc(c1)c2c34
measurement.target: human Retinoid X Receptor beta (RXRb), RXRB (gene 6257)
classification: active
//
cpd.smiles: COS(=O)(=O)OC
measurement.target: human Retinoid X Receptor beta (RXRb), RXRB (gene 6257)
classification: inactive
//
cpd.smiles: O=NN(c1ccccc1)c1ccccc1
measurement.target: human Retinoid X Receptor beta (RXRb), RXRB (gene 6257)
classification: active
//
cpd.smiles: O=C(NC(=O)c1c(F)cccc1F)Nc1cc(Cl)c(OC(F)(F)C(F)F)c(Cl)c1
measurement.target: human Retinoid X Receptor beta (RXRb), RXRB (gene 6257)
classification: inactive
//
cpd.smiles: CN(C)CCO
measurement.target: human Retinoid X Receptor beta (RXRb), RXRB (gene 6257)
classification: inactive
//
cpd.smiles: C=CC(N)=O
measurement.target: human Retinoid X Receptor beta (RXRb), RXRB (gene 6257)
classification: active
//
cpd.smiles: C[C@]12CCC(=O)C=C1CC[C@@H]1[C@@H]2CC[C@]2(C)C(=O)CC[C@@H]12
measurement.target: human Retinoid X Receptor beta (RXRb), RXRB (gene 6257)
classification: inactive
//
cpd.smiles: Nc1ccc(-c2ccc(N)cc2)cc1
measurement.target: human Retinoid X Receptor beta (RXRb), RXRB (gene 6257)
classification: active
//
cpd.smiles: CCSC(=O)N(CC)C1CCCCC1
measurement.target: human Retinoid X Receptor beta (RXRb), RXRB (gene 6257)
classification: inactive
//
cpd.smiles: CO/C=C(/C(=O)OC)c1ccccc1COc1cccc(C(F)(F)F)n1
measurement.target: human Retinoid X Receptor beta (RXRb), RXRB (gene 6257)
classification: active
//
cpd.smiles: CCCCCCCCOC(=O)c1ccccc1C(=O)OCCCCCCCC
measurement.target: human Retinoid X Receptor beta (RXRb), RXRB (gene 6257)
classification: inactive
//
cpd.smiles: O=C(O)C(F)(F)C(F)(F)C(F)(F)C(F)(F)C(F)(F)F
measurement.target: human Retinoid X Receptor beta (RXRb), RXRB (gene 6257)
classification: inactive
//
cpd.smiles: Cc1ccccc1CO[C@@H]1C[C@@]2(C(C)C)CC[C@]1(C)O2
measurement.target: human Retinoid X Receptor beta (RXRb), RXRB (gene 6257)
classification: inactive
//
cpd.smiles: Clc1ccc(Cl)cc1
measurement.target: human Retinoid X Receptor beta (RXRb), RXRB (gene 6257)
classification: inactive
//
cpd.smiles: CCCCCCOC(=O)c1ccccc1C(=O)OCCCCCC
measurement.target: human Retinoid X Receptor beta (RXRb), RXRB (gene 6257)
classification: inactive
//
cpd.smiles: Sc1ccccc1
measurement.target: human Retinoid X Receptor beta (RXRb), RXRB (gene 6257)
classification: inactive
//
cpd.smiles: Cc1cc(-c2ccc(N)c(C)c2)ccc1N
measurement.target: human Retinoid X Receptor beta (RXRb), RXRB (gene 6257)
classification: inactive
//
cpd.smiles: CN(C)c1nc(=O)n(C2CCCCC2)c(=O)n1C
measurement.target: human Retinoid X Receptor beta (RXRb), RXRB (gene 6257)
classification: inactive
